- systemName: T1, XPF-Δnuc (HhH2 domain);PCNA heterotrimer (Sulfolobus solfataricus P2;Sulfolobus …, UniProt Q7LXL5;P57766;Q97Z84;P57765 =M+148-233;1-249;1-245;1-244, internal_change|)
- T1 sequence 1: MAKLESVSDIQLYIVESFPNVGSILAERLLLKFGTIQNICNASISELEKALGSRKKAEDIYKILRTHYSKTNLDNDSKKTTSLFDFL
- T1 sequence 2: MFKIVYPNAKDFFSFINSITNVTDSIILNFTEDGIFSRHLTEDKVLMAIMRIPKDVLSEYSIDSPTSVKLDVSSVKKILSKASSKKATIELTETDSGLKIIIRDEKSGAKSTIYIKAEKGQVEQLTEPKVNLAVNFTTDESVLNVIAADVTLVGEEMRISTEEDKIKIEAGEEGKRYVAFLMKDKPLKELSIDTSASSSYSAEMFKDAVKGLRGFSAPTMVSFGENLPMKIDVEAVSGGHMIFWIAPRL
- T1 sequence 3: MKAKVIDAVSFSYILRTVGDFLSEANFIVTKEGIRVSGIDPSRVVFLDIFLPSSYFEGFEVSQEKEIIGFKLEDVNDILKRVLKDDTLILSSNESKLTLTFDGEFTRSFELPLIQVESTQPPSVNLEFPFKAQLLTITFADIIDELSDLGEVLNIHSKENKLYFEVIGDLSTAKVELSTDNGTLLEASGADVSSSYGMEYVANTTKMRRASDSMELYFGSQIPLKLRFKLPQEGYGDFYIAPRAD
- T1 sequence 4: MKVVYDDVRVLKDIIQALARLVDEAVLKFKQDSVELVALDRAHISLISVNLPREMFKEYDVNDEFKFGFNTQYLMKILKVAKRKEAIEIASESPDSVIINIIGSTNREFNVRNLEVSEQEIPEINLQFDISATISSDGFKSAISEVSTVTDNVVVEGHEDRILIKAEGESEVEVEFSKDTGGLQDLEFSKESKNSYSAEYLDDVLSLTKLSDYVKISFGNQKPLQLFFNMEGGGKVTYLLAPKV
- assayDetails: FRET
pKd: −log10 of the molar value.
propertyLabel: pKd

binder	numericValue
3' flap, three vectors (global fit) (structured_DNA, dye positions as in Flap-12, Flap-13 and Flap-23) DNA 1: AGCCCGACAGCAGTCAGAGCTTGCTAGGACGGACGGT DNA 2: ACCGTCCGTCCTAGCAAGCATTTTTTT DNA 3: TCTGACTGCTGTCGGGCT	6.96
